Target: human PRMT5/MEP50 (Homo sapiens (Human), UniProt O14744)
Sequence (O14744 whole entry): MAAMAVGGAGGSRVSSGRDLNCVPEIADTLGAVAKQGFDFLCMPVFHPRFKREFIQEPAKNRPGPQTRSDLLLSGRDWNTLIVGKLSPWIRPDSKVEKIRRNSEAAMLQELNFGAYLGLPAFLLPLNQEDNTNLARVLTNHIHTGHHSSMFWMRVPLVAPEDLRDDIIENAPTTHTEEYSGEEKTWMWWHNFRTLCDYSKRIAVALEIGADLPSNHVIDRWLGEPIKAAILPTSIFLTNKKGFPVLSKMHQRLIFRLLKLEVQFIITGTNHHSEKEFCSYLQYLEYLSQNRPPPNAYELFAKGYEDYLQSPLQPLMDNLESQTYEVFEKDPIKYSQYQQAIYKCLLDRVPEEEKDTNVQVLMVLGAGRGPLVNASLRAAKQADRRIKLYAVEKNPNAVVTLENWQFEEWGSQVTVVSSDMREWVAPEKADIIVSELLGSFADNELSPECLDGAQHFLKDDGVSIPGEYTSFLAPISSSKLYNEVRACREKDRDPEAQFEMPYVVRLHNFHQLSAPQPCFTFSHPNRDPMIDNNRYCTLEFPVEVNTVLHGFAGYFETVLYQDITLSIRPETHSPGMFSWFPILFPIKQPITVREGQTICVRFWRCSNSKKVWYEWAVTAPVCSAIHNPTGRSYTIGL
Sequence (Q9BQA1 whole entry partner): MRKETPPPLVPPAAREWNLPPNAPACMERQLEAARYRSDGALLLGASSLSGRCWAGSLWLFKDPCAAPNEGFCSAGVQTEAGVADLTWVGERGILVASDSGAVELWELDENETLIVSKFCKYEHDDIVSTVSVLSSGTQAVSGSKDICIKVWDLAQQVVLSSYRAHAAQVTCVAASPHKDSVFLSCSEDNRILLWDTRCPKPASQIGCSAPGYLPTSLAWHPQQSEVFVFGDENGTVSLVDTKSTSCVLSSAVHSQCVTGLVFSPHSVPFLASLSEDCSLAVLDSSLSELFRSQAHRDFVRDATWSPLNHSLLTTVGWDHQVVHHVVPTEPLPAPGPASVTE
Test: PRMT5 chemiluminescent assay
Conditions: human PRMT5/MEP50 expressed in HEK293 cells; biotinylated histone peptides; Histone H4 monomethyl R3 antibody; chemiluminescent readout
pIC50: −log10 of the molar value.
experimental-endpoint: pIC50

Answered examples (4):
[[record]]
compound = "CC(=O)N1CCCN(C(=O)NC[C@H](O)CN2CCc3ccccc3C2)CC1"
experimental_endpoint = "pIC50"
value_measured = 6.32

[[record]]
compound = "O=C(NCC(O)CN1CCc2ccccc2C1)N1CC(C(=O)N2CCOCC2)C1 (centres unmarked)"
experimental_endpoint = "pIC50"
value_measured = 5.13

[[record]]
compound = "O=C(NC[C@H](O)CN1CCc2ccccc2C1)N1CCCC(c2cccnc2)C1 (some centres unmarked)"
experimental_endpoint = "pIC50"
value_measured = 7.24

[[record]]
compound = "O=C(OCC(O)CN1CCc2ccccc2C1)N1CC(C(=O)N2CCOCC2)C1 (centres unmarked)"
experimental_endpoint = "pIC50"
value_measured = 5.73


I = CN(C)C(=O)C1CCN(C(=O)OC[C@H](O)CN2CCc3ccccc3C2)CC1
II = O=C(NCC(O)CN1CCc2ccccc2C1)N1CCCc2ccccc21 (centres unmarked)
III = O=C(NC[C@H](O)CN1CCc2ccccc2C1)N1CCCC(N2CCSCC2)C1 (some centres unmarked)
IV = O=C(OCC(O)CN1CCc2ccsc2C1)N1CCCC(c2ccccc2)C1 (centres unmarked)
V = O=C(NC[C@@H](O)CN1CCc2ccccc2C1)N1CCCc2ccccc21
Place the items in sequence of falling pIC50. # respond with the labels, arranged in the requested order II, IV, III, I, V
(II: 7.06, IV: 6.65, III: 6.20, I: 5.57, V: 5.22)

P = CC(=O)N1CCCN(C(=O)NC[C@@H](O)CN2CCc3ccccc3C2)CC1
Q = O=C(NC[C@H](O)CN1CCc2ccccc2C1)N1CCCC(N2CCN(Cc3ccccc3)CC2)C1 (some centres unmarked)
R = CC1(O)CCN(C(=O)NC[C@H](O)CN2CCc3ccccc3C2)CC1
S = O=C(NCC(O)CN1CCc2sccc2C1)N1CCCc2ccccc21 (centres unmarked)
Order by pIC50, ascending. # respond with the labels, arranged in the requested order P, R, Q, S
(P: 4.29, R: 5.40, Q: 5.72, S: 6.63)

----------
Target: human PRMT5/MEP50 (Homo sapiens (Human), UniProt O14744)
Experiment: PRMT5 chemiluminescent assay
Conditions: human PRMT5/MEP50 expressed in HEK293 cells; biotinylated histone peptides; Histone H4 monomethyl R3 antibody; chemiluminescent readout
experimental-endpoint: IC50 (µM)

Answered examples (2):
[[record]]
molecule = "O=C(OC[C@H](O)CN1CCc2ccccc2C1)N1CCc2ccccc2C1"
value_measured = 0.008

[[record]]
molecule = "O=C(NC[C@H](O)CN1CCc2ccccc2C1)N1CCC(C(=O)N2CCOCC2)CC1"
value_measured = 0.311


P = O=C(OCC(O)CN1CCc2ccccc2C1)N1CCS(=O)(=O)CC1 (stereo not drawn)
Q = CC(=O)N1CCCN(C(=O)OCC(O)CN2CCc3ccccc3C2)CC1 (stereo not drawn)
R = O=C(NCC(O)CN1CCc2ccccc2C1)N1CCCCC(c2ccccc2)C1 (stereo not drawn)
Order by IC50, ascending. # respond with the labels, arranged in the requested order R, Q, P
(R: 0.017 µM, Q: 38.9 µM, P: 213 µM)

----------
Biological target: human PRMT5/MEP50 (Homo sapiens (Human))
Test: PRMT5 chemiluminescent assay
Conditions: human PRMT5/MEP50 expressed in HEK293 cells; biotinylated histone peptides; Histone H4 monomethyl R3 antibody; chemiluminescent readout
pIC50: −log10 of the molar value.
experimental-endpoint: pIC50

Answered examples (2):
[[record]]
compound = "O=C(NC[C@H](O)CN1CCc2ccccc2C1)N1CCCC(N2CCCSCC2)C1 (stereo partly shown)"
experimental_endpoint = "pIC50"
value_measured = 6.47

[[record]]
compound = "Cn1cc(C2CCCN(C(=O)NC[C@H](O)CN3CCc4ccccc4C3)C2)ccc1=O (stereo partly shown)"
experimental_endpoint = "pIC50"
value_measured = 6.31


A = O=C(NC[C@H](O)CN1CCc2ccccc2C1)N1CCCC(N2CCCOCC2)C1 (stereo partly shown)
B = CN1CCCN(C(=O)OCC(O)CN2CCc3ccccc3C2)CC1 (stereo not shown)
C = CN(C)C(=O)C1CCN(C(=O)NC[C@H](O)CN2CCc3ccccc3C2)CC1
D = O=C(NC[C@H](O)CN1CCc2ccccc2C1)N1CCCOCC1
E = O=C(NC[C@H](O)CN1CCc2ccccc2C1)N1CCCS(=O)(=O)CC1
Place the items in sequence of falling pIC50. # respond with the labels, arranged in the requested order B, C, A, E, D

----------
Target: human PRMT5/MEP50 (Homo sapiens (Human))
Experiment: PRMT5 chemiluminescent assay
Type: biochemical
Settings: human PRMT5/MEP50 expressed in HEK293 cells; biotinylated histone peptides; Histone H4 monomethyl R3 antibody; chemiluminescent readout
experimental-endpoint: IC50 (nM)

Answered examples (5):
[[record]]
molecule = "O=C(OCC(O)CN1CCc2sccc2C1)N1CCCC(c2ccccc2)C1 (stereo not drawn)"
assay_target = "human PRMT5/MEP50 (Homo sapiens (Human))"
value_measured = 374

[[record]]
molecule = "O=C(NCC(O)CN1CCc2ccccc2C1)N1CCCC(Oc2ccccc2)C1 (stereo not drawn)"
assay_target = "human PRMT5/MEP50 (Homo sapiens (Human))"
value_measured = 267

[[record]]
molecule = "O=C(NCC(O)CN1CCc2ccccc2C1)N1CCCC(c2ccccc2)CC1 (stereo not drawn)"
assay_target = "human PRMT5/MEP50 (Homo sapiens (Human))"
value_measured = 1100

[[record]]
molecule = "CN(C)C(=O)C1CN(C(=O)OCC(O)CN2CCc3ccccc3C2)C1 (stereo not drawn)"
assay_target = "human PRMT5/MEP50 (Homo sapiens (Human))"
value_measured = 5030

[[record]]
molecule = "O=C(NC[C@H](O)CN1CCc2ccccc2C1)N1CCC[S+]([O-])CC1 (stereo partly drawn)"
assay_target = "human PRMT5/MEP50 (Homo sapiens (Human))"
value_measured = 31200


I = O=C(OCC(O)CN1CCc2ccccc2C1)N1CCc2ccccc2C1 (stereo not drawn)
II = CN1CCN(C2CCCN(C(=O)NC[C@H](O)CN3CCc4ccccc4C3)C2)CC1 (stereo partly drawn)
III = O=C(NCCCN1CCc2ccccc2C1)N1CCCC(c2ccccc2)C1 (stereo not drawn)
Order by IC50, ascending. # respond with the labels, arranged in the requested order I, III, II
(I: 192 nM, III: 1700 nM, II: 2650 nM)

----------
Molecular target: human PRMT5/MEP50 (Homo sapiens (Human), UniProt O14744)
Experiment: PRMT5 chemiluminescent assay
Settings: human PRMT5/MEP50 expressed in HEK293 cells; biotinylated histone peptides; Histone H4 monomethyl R3 antibody; chemiluminescent readout
pIC50: −log10 of the molar value.
experimental-endpoint: pIC50

[[record]]
compound = "O=C(NCC(O)CN1CCc2ccsc2C1)N1CCC(c2ccccc2)C1 (stereo not drawn)"
value_measured = 6.13

[[record]]
compound = "O=C(NCCCN1CCc2ccccc2C1)N1CCC(c2ccccc2)C1 (stereo not drawn)"
value_measured = 6.03

[[record]]
compound = "O=C(NCC(O)CN1CCc2ccccc2C1)N1CCN(c2ccccc2)CC1 (stereo not drawn)"
value_measured = 5.91

[[record]]
compound = "O=C(NC[C@H](O)CN1CCc2ccccc2C1)N1CCCSCC1"
value_measured = 6.16

[[record]]
compound = "O=C(OCC(O)CN1CCc2ccccc2C1)N1CCSCC1 (stereo not drawn)"
value_measured = 6.32

[[record]]
compound = "O=C(NC[C@H](O)CN1CCc2ccccc2C1)N1CCS(=O)(=O)C(c2ccccc2)C1 (stereo partly drawn)"
value_measured = 6.37

[[record]]
compound = "O=C(OC[C@H](O)CN1CCc2ccccc2C1)N1CC[C@@H](c2ccccc2)C1"
value_measured = 7.70

[[record]]
compound = "CN1CCCN(C(=O)NCC(O)CN2CCc3ccccc3C2)CC1 (stereo not drawn)"
value_measured = 6.36

[[record]]
compound = "O=C(NC[C@H](O)CN1CCc2ccccc2C1)N1CCCc2ccccc21"
value_measured = 7.10

[[record]]
compound = "O=C(NCC(O)CN1CCc2ccccc2C1)N1CCCN(c2ccccc2)CC1 (stereo not drawn)"
value_measured = 7.02


1 = O=C(NC[C@H](O)CN1CCc2ccccc2C1)N1CCCN(S(=O)(=O)c2ccccc2)CC1
2 = O=C(NC[C@H](O)CN1CCc2ccccc2C1)N1CCCC(O)(c2ccccc2)C1 (stereo partly drawn)
Please state the entry with greater pIC50 among 1 and 2 . The response must carry the label of the picked entry. 2
(2: 6.78, 1: 5.89)

----------
Biological target: human PRMT5/MEP50 (Homo sapiens (Human))
Assay: PRMT5 chemiluminescent assay
Conditions: human PRMT5/MEP50 expressed in HEK293 cells; biotinylated histone peptides; Histone H4 monomethyl R3 antibody; chemiluminescent readout
experimental-endpoint: IC50 (nM)

[[record]]
compound = "O=C(NCC(O)CN1CCc2ccccc2C1)N1CCC(C(=O)N2CCOCC2)CC1 (stereo not drawn) [Example 1O]"
value_measured = 51

[[record]]
compound = "Cc1cc(C2CCCN(C(=O)NC[C@H](O)CN3CCc4ccccc4C3)C2)ccn1 (stereo partly drawn) [Example 1BT]"
value_measured = 127


I = O=C(NCC(O)CN1CCc2ccsc2C1)N1CCCc2ccccc21 (stereo not drawn) [Example 1Z]
II = O=C(OCC(O)CN1CCc2ccsc2C1)N1CCC(c2ccccc2)C1 (stereo not drawn) [Example 4AF]
III = O=C(OC[C@H](O)CN1CCc2ccccc2C1)N1CCC(C(=O)N2CCOCC2)CC1 [Example 4P]
Order by IC50, ascending. # respond with the labels, arranged in the requested order II, III, I
(II: 21 nM, III: 225 nM, I: 639 nM)
